Target: human recombinant Dipeptidyl peptidase IV enzyme (hrDPP IV) (Homo sapiens)
Construct: purchased R&D systems
Sequence (P27487 whole entry): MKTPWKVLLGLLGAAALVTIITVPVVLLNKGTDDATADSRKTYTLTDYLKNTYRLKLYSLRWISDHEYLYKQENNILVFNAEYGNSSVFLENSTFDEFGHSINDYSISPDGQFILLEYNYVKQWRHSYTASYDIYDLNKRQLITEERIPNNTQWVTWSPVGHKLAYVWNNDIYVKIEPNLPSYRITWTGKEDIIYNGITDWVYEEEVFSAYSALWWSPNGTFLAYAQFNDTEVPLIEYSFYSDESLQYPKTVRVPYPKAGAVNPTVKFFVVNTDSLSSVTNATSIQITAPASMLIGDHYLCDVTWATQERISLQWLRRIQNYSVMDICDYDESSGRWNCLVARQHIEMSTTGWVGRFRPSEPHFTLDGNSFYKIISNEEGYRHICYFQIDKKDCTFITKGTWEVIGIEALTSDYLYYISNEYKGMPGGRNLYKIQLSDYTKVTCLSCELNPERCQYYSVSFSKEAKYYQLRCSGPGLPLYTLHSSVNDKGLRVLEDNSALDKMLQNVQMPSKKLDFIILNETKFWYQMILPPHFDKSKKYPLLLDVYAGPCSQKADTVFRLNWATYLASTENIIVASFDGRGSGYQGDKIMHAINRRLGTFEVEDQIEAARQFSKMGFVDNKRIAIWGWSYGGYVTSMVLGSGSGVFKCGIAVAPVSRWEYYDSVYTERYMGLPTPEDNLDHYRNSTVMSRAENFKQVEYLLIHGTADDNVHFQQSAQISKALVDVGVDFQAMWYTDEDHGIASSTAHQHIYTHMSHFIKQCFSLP
Assay: DPP IV assay, cleavage of H-Gly-Pro-AMC by human recombinant DPP-IV enzyme
Format: biochemical
Conditions: 300 nM compound concentration
Exercise: state measured inhibition at 0.3 µM for each of the compounds provided.
All answers are understood in %, so give the number only.

Incoming: Recall and state the measured inhibition at 0.3 µM for CC1(C)[C@@H](CN2CCC(O)CC2)CC[C@@]1(C)NCC(=O)N1C[C@@H](F)C[C@H]1C#N [Example 41] .
Outgoing: 26.1

Incoming: Please look at this compound and report its inhibition at 0.3 µM: CC1(C)[C@H](Cc2noc(C3CCCCC3)n2)CC[C@]1(C)NCC(=O)N1C[C@@H](F)C[C@H]1C#N [Example 59]
Outgoing: 67.7

Incoming: Let me know recorded inhibition at 0.3 µM for CC1(C)[C@@H](CN2CC[C@@H](O)C2)CC[C@@]1(C)NCC(=O)N1C[C@@H](F)C[C@H]1C#N [Example 38] , thanks.
Outgoing: 42.6

Incoming: Fill in reported inhibition at 0.3 µM for this entry: Cc1nc(C[C@H]2CC[C@@](C)(NCC(=O)N3C[C@@H](F)C[C@H]3C#N)C2(C)C)no1 [Example 54]
Outgoing: 64.9

Incoming: Give recorded inhibition at 0.3 µM. CC1(C)[C@H](CS(=O)(=O)c2ccc(S(C)(=O)=O)cc2)CC[C@]1(C)NCC(=O)N1CCC[C@H]1C#N [Example 46]
Outgoing: 40.9
